B1: HDV Ribozyme (parent)
chain: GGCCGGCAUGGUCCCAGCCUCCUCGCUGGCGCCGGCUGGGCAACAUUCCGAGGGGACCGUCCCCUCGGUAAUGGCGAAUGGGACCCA

# Variants of: B1
# protocol-description: self-cleavage, relative activity (ratio to wild type); higher = more cleavage; co-transcriptional
readout: self-cleavage
Output spec: single numeric token, no unit.

Query: Provide self-cleavage value for the following variant: C22A C86G
Result: 0.208

Query: Provide self-cleavage value for the following variant: C58U U72C
Result: 0.415

Query: Provide self-cleavage value for the following variant: G29U C58G
Result: 0.0755

Query: Provide self-cleavage value for the following variant: C30A G40U
Result: 0.183

Query: Provide self-cleavage value for the following variant: C26G G68C
Result: 1.07

Query: Provide self-cleavage value for the following variant: U69A G73U
Result: 0.494

Query: Provide self-cleavage value for the following variant: G52C C75G
Result: 0.104

Query: Provide self-cleavage value for the following variant: C21U G54U
Result: 0.232

Query: Provide self-cleavage value for the following variant: G1A G31U
Result: 0

Query: Provide self-cleavage value for the following variant: C7U U27A
Result: 0.519

Query: Provide self-cleavage value for the following variant: C18A G76C
Result: 0.14

Query: Provide self-cleavage value for the following variant: C44G C85G
Result: 0.831

Query: Provide self-cleavage value for the following variant: C30G G50U
Result: 0.0978

Query: Provide self-cleavage value for the following variant: G5C A87G
Result: 0.124

Query: Provide self-cleavage value for the following variant: G6C A83U
Result: 0.0692

Query: Provide self-cleavage value for the following variant: C4A U9C
Result: 0.268

Query: Provide self-cleavage value for the following variant: U12G G40C
Result: 0.123

Query: Provide self-cleavage value for the following variant: C3U C64U
Result: 0.954

Query: Provide self-cleavage value for the following variant: U12A C30G
Result: 0.131

Query: Provide self-cleavage value for the following variant: G28A C86A
Result: 0.0256

Query: Provide self-cleavage value for the following variant: G6A C86A
Result: 0.536

Query: Provide self-cleavage value for the following variant: U12A G55C
Result: 0.201

Query: Provide self-cleavage value for the following variant: G53A C86A
Result: 1.16

Query: Provide self-cleavage value for the following variant: A16U C75A
Result: 0.111

Query: Provide self-cleavage value for the following variant: C57A A77G
Result: 1.17

Query: Provide self-cleavage value for the following variant: G68A G80U
Result: 0.251

Query: Provide self-cleavage value for the following variant: C7G G29A
Result: 0

Query: Provide self-cleavage value for the following variant: C41A C85G
Result: 0.86

Query: Provide self-cleavage value for the following variant: C36A G38C
Result: 0.0415

Query: Provide self-cleavage value for the following variant: G17U G29U
Result: 0.0554

Query: Provide self-cleavage value for the following variant: C66U G80C
Result: 0.153

Query: Provide self-cleavage value for the following variant: U20A A71C
Result: 0.0554

Query: Provide self-cleavage value for the following variant: A51C U60G
Result: 0.95

Query: Provide self-cleavage value for the following variant: C32A A70C
Result: 0.101

Query: Provide self-cleavage value for the following variant: A42G G52A
Result: 0.483

Query: Provide self-cleavage value for the following variant: C14A U65G
Result: 0.688

Query: Provide self-cleavage value for the following variant: G31A C41A
Result: 0.273

Query: Provide self-cleavage value for the following variant: G38U C61U
Result: 0.174

Query: Provide self-cleavage value for the following variant: C24U U72C
Result: 0.104

Query: Provide self-cleavage value for the following variant: G25C C61A
Result: 0.201

Query: Provide self-cleavage value for the following variant: C33A G74A
Result: 0.0219

Query: Provide self-cleavage value for the following variant: C14U G17U
Result: 0.511

Query: Provide self-cleavage value for the following variant: A42G A78U
Result: 0.162

Query: Provide self-cleavage value for the following variant: G1U U69A
Result: 0.332

Query: Provide self-cleavage value for the following variant: C30U U72G
Result: 0.128

Query: Provide self-cleavage value for the following variant: A16G C33A
Result: 0.268

Query: Provide self-cleavage value for the following variant: G28C G76C
Result: 0.136

Query: Provide self-cleavage value for the following variant: G52C G53C
Result: 0.582

Query: Provide self-cleavage value for the following variant: C15G C61G
Result: 0.178

Query: Provide self-cleavage value for the following variant: G29C G34U
Result: 0.181

Query: Provide self-cleavage value for the following variant: C58A U72C
Result: 0.802

Query: Provide self-cleavage value for the following variant: C26G A51U
Result: 0.95

Query: Provide self-cleavage value for the following variant: G28A G54A
Result: 0.0811

Query: Provide self-cleavage value for the following variant: G35A G81C
Result: 0.188

Query: Provide self-cleavage value for the following variant: G6C U23C
Result: 0.0639

Query: Provide self-cleavage value for the following variant: U12A G73C
Result: 0.314

Query: Provide self-cleavage value for the following variant: C15A G76U
Result: 0.919

Query: Provide self-cleavage value for the following variant: G17A U79A
Result: 0.627

Query: Provide self-cleavage value for the following variant: G55A C66A
Result: 1.07

Query: Provide self-cleavage value for the following variant: C41U C84A
Result: 0.78

Query: Provide self-cleavage value for the following variant: G1A A56G
Result: 0

Query: Provide self-cleavage value for the following variant: C19G C49A
Result: 0.0354

Query: Provide self-cleavage value for the following variant: C49U C75G
Result: 0.0723

Query: Provide self-cleavage value for the following variant: C49A U60G
Result: 1.33

Query: Provide self-cleavage value for the following variant: C26G U46C
Result: 1.15

Query: Provide self-cleavage value for the following variant: G2C G59C
Result: 0.0923

Query: Provide self-cleavage value for the following variant: C32U U69A
Result: 1.13

Query: Provide self-cleavage value for the following variant: U37G G80A
Result: 0.0308

Query: Provide self-cleavage value for the following variant: U60C C62G
Result: 1.07

Query: Provide self-cleavage value for the following variant: G73A G74A
Result: 0.248

Query: Provide self-cleavage value for the following variant: G25A C30A
Result: 0.126

Query: Provide self-cleavage value for the following variant: G28U A45G
Result: 0.208

Query: Provide self-cleavage value for the following variant: C24U U46C
Result: 0.268

Query: Provide self-cleavage value for the following variant: G55U C84G
Result: 0.546

Query: Provide self-cleavage value for the following variant: C7G G76U
Result: 0.237

Query: Provide self-cleavage value for the following variant: U72G C84G
Result: 0.214

Query: Provide self-cleavage value for the following variant: C3A C19A
Result: 0.0199

Query: Provide self-cleavage value for the following variant: C36A U37A
Result: 0.0831

Query: Provide self-cleavage value for the following variant: C13A C21A
Result: 0.158

Query: Provide self-cleavage value for the following variant: G6U C86U
Result: 0.633

Query: Provide self-cleavage value for the following variant: A42G C86G
Result: 0.597

Query: Provide self-cleavage value for the following variant: U69G G80U
Result: 0.31

Query: Provide self-cleavage value for the following variant: G6A C75G
Result: 0.0369

Query: Provide self-cleavage value for the following variant: U72A A83U
Result: 0.166

Query: Provide self-cleavage value for the following variant: C26A C86U
Result: 0.735

Query: Provide self-cleavage value for the following variant: C57U C64U
Result: 0.845

Query: Provide self-cleavage value for the following variant: C18G C32U
Result: 0.172

Query: Provide self-cleavage value for the following variant: C48G A70C
Result: 0.6

Query: Provide self-cleavage value for the following variant: C7U C66G
Result: 0.974

Query: Provide self-cleavage value for the following variant: A43C C49A
Result: 0.172

Query: Provide self-cleavage value for the following variant: U9G G38C
Result: 0.302
